molecular target: SHP-2 enzyme (Homo sapiens); construct: Homogeneous Full Length SHP-2 Assay Kit (BPS Bioscience #79330); experiment: Phosphatase activity assay (Homogeneous Full Length SHP-2 Assay Kit, DiFMUP substrate); details: full length SHP-2 activated with 0.5 μM SHP-2 activating Peptide; 1 hour co-incubation; DiFMUP 50 μM, 30 min
parameterMeasured: pIC50
// pIC50 is dimensionless: -log10 of concentration (M)

COc1ccc2c(c1)C(N)C1(CCN(c3cnc(C(=O)N4CCCn5nccc54)c(N)n3)CC1)C2 (centres unmarked); 9.00

## Task Give pIC50 for the following molecule: Nc1nc(N2CCC3(CC2)Cc2ccc(F)cc2C3N)cnc1C(=O)N1CCCn2nccc21 (centres unmarked)
## Result 8.30

## Task Give pIC50 for the following molecule: COc1ccc2c(c1)CC1(CCN(c3cnc(C(=O)N4CCCn5nccc54)c(N)n3)CC1)C2N (centres unmarked)
## Result 8.00

## Task Give pIC50 for the following molecule: Nc1nc2c(s1)CN(C(=O)c1nc(F)c(N3CCC4(CC3)Cc3ccccc3C4N)nc1N)CC2(F)F (centres unmarked)
## Result 8.40

## Task Give pIC50 for the following molecule: CNc1ccc2c(n1)CCN2C(=O)c1ncc(N2CCC3(CC2)Cc2ccccc2C3N)nc1N (centres unmarked)
## Result 8.40

## Task Give pIC50 for the following molecule: Nc1nc(N2CCC3(CC2)Cc2ccccc2C3N)cnc1C(=O)N1CCn2nccc2C1 (centres unmarked)
## Result 8.30

## Task Give pIC50 for the following molecule: Nc1nc(N2CCC3(CC2)Cc2ncsc2C3N)cnc1C(=O)N1CCCn2nccc21 (centres unmarked)
## Result 8.10

## Task Give pIC50 for the following molecule: CC1(C)Cc2nc(N)sc2CN1C(=O)c1ncc(N2CCC3(CC2)Cc2ccccc2C3N)nc1N (centres unmarked)
## Result 8.05

---

pIC50 values by entry
Target: SHP-2 enzyme (Homo sapiens, UniProt Q06124)
Construct: Homogeneous Full Length SHP-2 Assay Kit (BPS Bioscience #79330)
Sequence (Q06124 1-593): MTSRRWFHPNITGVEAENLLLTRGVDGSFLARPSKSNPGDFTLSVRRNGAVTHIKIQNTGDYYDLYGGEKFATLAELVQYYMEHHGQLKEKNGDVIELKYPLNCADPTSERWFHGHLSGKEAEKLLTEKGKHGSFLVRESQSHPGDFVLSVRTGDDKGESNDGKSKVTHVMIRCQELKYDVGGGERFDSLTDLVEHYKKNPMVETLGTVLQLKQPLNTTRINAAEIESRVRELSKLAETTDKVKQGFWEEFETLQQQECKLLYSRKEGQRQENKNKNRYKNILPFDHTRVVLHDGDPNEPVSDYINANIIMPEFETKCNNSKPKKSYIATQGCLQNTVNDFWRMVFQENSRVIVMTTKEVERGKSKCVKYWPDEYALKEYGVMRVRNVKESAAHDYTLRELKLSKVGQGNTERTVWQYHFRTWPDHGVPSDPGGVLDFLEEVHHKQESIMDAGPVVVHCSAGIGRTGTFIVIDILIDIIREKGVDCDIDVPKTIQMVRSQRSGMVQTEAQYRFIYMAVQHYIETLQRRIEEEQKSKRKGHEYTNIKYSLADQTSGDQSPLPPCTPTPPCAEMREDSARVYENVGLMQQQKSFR
Experiment: Phosphatase activity assay (Homogeneous Full Length SHP-2 Assay Kit, DiFMUP substrate)
Conditions: full length SHP-2 activated with 0.5 μM SHP-2 activating Peptide; 1 hour co-incubation; DiFMUP 50 μM, 30 min
// pIC50 is dimensionless: -log10 of concentration (M)

## Task Give pIC50 for the following compound: [2H]C1([2H])CN(C(=O)c2ncc(N3CCC4(CC3)Cc3ccc(C)cc3C4N)nc2N)Cc2sc(N)nc21 (stereo not shown)
## Result 8.30

---

pIC50 values by entry
biological target: SHP-2 enzyme (Homo sapiens, UniProt Q06124); construct: Homogeneous Full Length SHP-2 Assay Kit (BPS Bioscience #79330); purchased BPS Bioscience 79330; test: Phosphatase activity assay (Homogeneous Full Length SHP-2 Assay Kit, DiFMUP substrate); format: biochemical; conditions: full length SHP-2 activated with 0.5 μM SHP-2 activating Peptide; 1 hour co-incubation; DiFMUP 50 μM, 30 min
// pIC50 is dimensionless: -log10 of concentration (M)

Worked cases, pIC50 given:
Cc1nc(C(=O)N2Cc3sc(N)nc3C(F)(F)C2)c(N)nc1N1CCC2(CC1)Cc1ccccc1C2N (stereo not shown) [Compound 65]; 8.40
Nc1nc2c(s1)CN(C(=O)c1ncc(N3CCC4(CC3)Cc3ccc(C5CC5)cc3C4N)nc1N)CC2 (stereo not shown) [Compound 110]; 8.05

## Task Jot down pIC50 (SHP-2 enzyme (Homo sapiens, UniProt Q06124)) of [2H]C1([2H])CN(C(=O)c2ncc(N3CCC4(CC3)Cc3ccc(OC)cc3C4N)nc2N)Cc2sc(N)nc21 (stereo not shown) [Compound 122] .
## Result 8.10

## Task Jot down pIC50 (SHP-2 enzyme (Homo sapiens, UniProt Q06124)) of Nc1nc(N2CCC3(CC2)Cc2ccccc2C3N)cnc1C(=O)N1CCCn2nccc21 (stereo not shown) [Compound 3] .
## Result 7.89

## Task Jot down pIC50 (SHP-2 enzyme (Homo sapiens, UniProt Q06124)) of Nc1nc(N2CCC3(CC2)Cc2ccc(F)cc2C3N)cnc1C(=O)N1CCc2ncsc2C1 (stereo not shown) [Compound 17] .
## Result 8.40

## Task Jot down pIC50 (SHP-2 enzyme (Homo sapiens, UniProt Q06124)) of Cn1cc(-c2ccc3c(n2)CCCN3C(=O)c2ncc(N3CCC4(CC3)Cc3ccccc3C4N)nc2N)cn1 (stereo not shown) [Compound 33] .
## Result 7.54

## Task Jot down pIC50 (SHP-2 enzyme (Homo sapiens, UniProt Q06124)) of Nc1nc(N2CCC3(CC2)Cc2c(F)cccc2C3N)c(F)nc1C(=O)N1CCCn2nccc21 (stereo not shown) [Compound 78] .
## Result 8.00

## Task Jot down pIC50 (SHP-2 enzyme (Homo sapiens, UniProt Q06124)) of COc1ccc2c(c1)C(N)C1(CCN(c3cnc(C(=O)N4Cc5sc(N)nc5C(F)(F)C4)c(N)n3)CC1)C2 (stereo not shown) [Compound 125] .
## Result 8.00

---

Target: SHP-2 enzyme (Homo sapiens, UniProt Q06124)
Construct: Homogeneous Full Length SHP-2 Assay Kit (BPS Bioscience #79330)
Sequence (Q06124 1-593): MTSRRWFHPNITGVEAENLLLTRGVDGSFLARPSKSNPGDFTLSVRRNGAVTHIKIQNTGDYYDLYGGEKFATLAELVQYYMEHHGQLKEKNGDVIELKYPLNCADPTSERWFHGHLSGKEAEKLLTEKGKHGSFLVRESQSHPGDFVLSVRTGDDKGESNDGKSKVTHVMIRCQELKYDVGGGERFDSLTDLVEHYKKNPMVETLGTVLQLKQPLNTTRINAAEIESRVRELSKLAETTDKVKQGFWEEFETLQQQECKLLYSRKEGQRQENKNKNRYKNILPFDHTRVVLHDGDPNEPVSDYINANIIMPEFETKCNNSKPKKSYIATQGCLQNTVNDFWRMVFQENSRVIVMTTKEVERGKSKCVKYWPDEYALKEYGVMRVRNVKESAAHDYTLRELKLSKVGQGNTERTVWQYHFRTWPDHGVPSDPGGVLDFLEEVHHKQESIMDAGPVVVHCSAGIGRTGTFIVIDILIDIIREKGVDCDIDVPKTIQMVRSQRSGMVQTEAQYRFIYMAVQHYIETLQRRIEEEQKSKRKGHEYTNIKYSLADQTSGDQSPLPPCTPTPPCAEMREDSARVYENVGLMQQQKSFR
Assay: Phosphatase activity assay (Homogeneous Full Length SHP-2 Assay Kit, DiFMUP substrate)
Settings: full length SHP-2 activated with 0.5 μM SHP-2 activating Peptide; 1 hour co-incubation; DiFMUP 50 μM, 30 min
parameterMeasured: IC50 (nM)
Return type: number; implicit unit nM.

Worked cases, IC50 given:
Nc1nc(N2CCC3(CC2)Cc2ccccc2C3N)cnc1C(=O)N1CCc2scnc2C1 (centres unmarked); 5
Cc1cc2n(n1)CCCN2C(=O)c1ncc(N2CCC3(CC2)Cc2ccccc2C3N)nc1N (centres unmarked); 28
Nc1nc(N2CCC3(CC2)Cc2ccccc2C3N)nnc1C(=O)N1CCCn2nccc21 (centres unmarked); 7
N#Cc1cccc2c1CCCN2C(=O)c1ncc(N2CCC3(CC2)Cc2ccccc2C3N)nc1N (centres unmarked); 13
CC1(C)CN(C(=O)c2ncc(N3CCC4(CC3)Cc3ccc(F)cc3C4N)nc2N)Cc2sc(N)nc21 (centres unmarked); 7

## Task Give IC50 for the following molecule: Nc1ccc2c(n1)CCN2C(=O)c1ncc(N2CCC3(CC2)Cc2ccccc2C3N)nc1N (centres unmarked)
## Result 4

## Task Give IC50 for the following molecule: CC(C)(O)c1ccc2c(c1)C(N)C1(CCN(c3cnc(C(=O)N4CCCn5nccc54)c(N)n3)CC1)C2 (centres unmarked)
## Result 21
